Tested on: normal primary NK cells, pool 1 (3 donors) (IL-2 2.5 ng/mL)
protocolText: percent inhibition of viability; higher = more inhibition
details: 72 h; 10000 nM
endpointName: percent inhibition of viability (%)
Quick reminder: number only, in %, skip the unit.

O=NN(CCCl)C(=O)NCCCl [Carmustine] (max concentration tested 10000 nM) ... 7.88
O=C(O)c1ccc(O)c2ncccc12 [IOX-1] (max concentration tested 100000 nM) ... 8.14

INPUT: Supply percent inhibition of viability value. Item: C[C@H]1C[C@@H]2[C@H]([C@@H](O)C[C@@]3(C)[C@H]2CC[C@]3(O)C(=O)CO)[C@@]2(C)C=CC(=O)C=C12 [Methylprednisolone] (max concentration tested 10000 nM)
OUTPUT: 81.7

###

Tested on: normal primary NK cells, pool 3 (3 donors) (IL-2 2.5 ng/mL)
protocolText: percent inhibition of viability; higher = more inhibition
details: 72 h; 100 nM
endpointName: percent inhibition of viability (%)
Quick reminder: number only, in %, skip the unit.

Examples with their reported percent inhibition of viability follow.
C#Cc1cccc(Nc2ncnc3cc4c(cc23)OCCOCCOCCO4)c1 [Icotinib] (max concentration tested 10000 nM) ... 3.15
OC[C@H]1O[C@@H](n2cnc3c2N=CNC[C@H]3O)C[C@@H]1O [Pentostatin] (max concentration tested 10000 nM) ... -7.39
FC(F)(F)c1ccc(/C=C/c2nc(COc3ccc(CCCCn4ccnn4)cc3)co2)cc1 [Mubritinib] (max concentration tested 1000 nM) ... 21.5
CNC(=O)c1cc(Oc2ccc(NC(=O)Nc3cc(C(C)(C)C)nn3-c3ccc4ncccc4c3)c(F)c2)ccn1 [Rebastinib] (max concentration tested 1000 nM) ... -11
CC(C)Oc1ccc(C(=O)N[C@H](CNC(=O)CN(C)C)Cc2ccc(-c3cn4cccc([C@H](C)O)c4n3)cc2)cc1Cl (max concentration tested 10000 nM) ... 16.4

Turning now to a further compound:
INPUT: Supply percent inhibition of viability measured with normal primary NK cells, pool 3 (3 donors) (IL-2 2.5 ng/mL) for CCn1c(-c2nonc2N)nc2cnc(Oc3cccc(NC(=O)c4ccc(OCCN5CCOCC5)cc4)c3)cc21 (max concentration tested 10000 nM) .
OUTPUT: 4.61

###

Test system: normal primary NK cells, pool 1 (3 donors) (IL-2 2.5 ng/mL)
protocolText: drug sensitivity score (DSS) (DSS units); higher = more sensitive; extreme values may be limits of the assay
details: 72 h
Hi all, reminder that labels come from drug sensitivity score, split as low bin (below 0.7), mid bin (0.7 to below 20), high bin (20 or more)

Reference set (5 entries):
CCN(CC)C(=S)SSC(=S)N(CC)CC [Disulfiram] (max concentration tested 100000 nM) ... high bin
NC(=O)c1ccc(I)c([N+](=O)[O-])c1 [Iniparib] (max concentration tested 10000 nM) ... mid bin
O=C(c1ccc(F)c(F)c1Nc1ccc(I)cc1F)N1CC(O)([C@@H]2CCCCN2)C1 [Cobimetinib] (max concentration tested 1000 nM) ... mid bin
O=C(Nc1ccc2[nH]nc(-c3ccncc3)c2c1)[C@@H]1CCN(CC(=O)N2CCN(c3ccc(-c4ncccn4)cc3)CC2)C1 (max concentration tested 10000 nM) ... mid bin
Cc1cc(C(=O)NOCCO)c(Nc2ccc(I)cc2F)n(C)c1=O [AZD-8330] (max concentration tested 10000 nM) ... mid bin

INPUT: For Cc1[nH]c2ccccc2c1CCNCc1ccc(/C=C/C(=O)NO)cc1 [Panobinostat] (max concentration tested 1000 nM) , which drug sensitivity score bin applies?
OUTPUT: high bin

INPUT: For O=C(Nc1cccc(Cl)c1)Nc1ncc(CCNc2ncnc3ccsc23)s1 [SNS-314] (max concentration tested 1000 nM) , which drug sensitivity score bin applies?
OUTPUT: low bin

INPUT: For CCc1nc(-c2cccc(C)c2)c(-c2ccnc(NC(=O)c3ccccc3)c2)s1 [TAK-715] (max concentration tested 10000 nM) , which drug sensitivity score bin applies?
OUTPUT: low bin

INPUT: For O=C(c1ccc(/C=C/c2n[nH]c3ccccc23)cc1)N1CCNCC1 [KW-2449] (max concentration tested 2500 nM) , which drug sensitivity score bin applies?
OUTPUT: low bin

INPUT: For C#Cc1cccc(Nc2ncnc3cc4c(cc23)OCCOCCOCCO4)c1 [Icotinib] (max concentration tested 10000 nM) , which drug sensitivity score bin applies?
OUTPUT: low bin

INPUT: For COc1ccc(C[C@H](NC(=O)[C@H](C)NC(=O)CN2CCOCC2)C(=O)N[C@@H](Cc2ccccc2)C(=O)C2(C)CO2)cc1 (stereo in doubt) [ONX-0914] (max concentration tested 10000 nM) , which drug sensitivity score bin applies?
OUTPUT: high bin
